tested-on: SCD5 (Homo sapiens, UniProt Q86SK9)
Construct: host or cells: S. cerevisiae ole1Δ strain (W303 pdr1Δ pdr3Δ background), plasmid pRS316 with TDH3 promoter and CYC1 terminator
Sequence (Q86SK9 whole entry): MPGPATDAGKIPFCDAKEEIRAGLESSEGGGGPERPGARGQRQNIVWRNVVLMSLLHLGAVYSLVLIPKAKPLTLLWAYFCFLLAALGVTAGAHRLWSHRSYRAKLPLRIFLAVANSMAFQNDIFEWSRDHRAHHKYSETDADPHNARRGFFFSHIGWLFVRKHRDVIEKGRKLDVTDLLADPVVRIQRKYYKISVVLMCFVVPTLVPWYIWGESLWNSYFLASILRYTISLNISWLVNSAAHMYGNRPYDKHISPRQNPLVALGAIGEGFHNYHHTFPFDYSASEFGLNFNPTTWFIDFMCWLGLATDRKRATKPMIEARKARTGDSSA
assay-method-text: Growth inhibition of humanized yeast strain expressing SCD5 as sole desaturase
Format: cell-based
run-conditions: humanized yeast strain expressing SCD5
pIC50: −log10 of the molar value.
Kindly state pIC50 for each of the entries shown.

Q: If you can, please state the reported pIC50 value of Cc1ncc2ccc(-c3noc(C4CCN(C(=O)CNC(=O)c5ccccc5)CC4)n3)cn12 .
A: < 4.35

Q: Similarly, CC(C)n1ncc2ccc(-c3noc(C4CCN(C(=O)CNC(=O)c5cccc(C#N)c5)CC4(F)F)n3)cc21 (stereo not shown) ?
A: < 4.35

Q: Next: CC(C)n1ncc2ccc(-c3noc(N4C[C@@H]5CN(C(=O)OC(C)(C)C)C[C@H]5C4)n3)cc21
A: < 4.35

Q: Could you do the same for COc1ccc(-c2noc(C3CCN(C(=O)CNC(=O)c4cccc(Cl)c4)CC3)n2)cc1OC , please?
A: 4.61

Q: Try this molecule too: Cn1ncc2ccc(NC(=O)C3CCN(C(=O)C4CC(=O)N(c5ccccc5)C4)CC3)cc21 (stereo not shown)
A: < 4.35

Q: Follow-up item: COc1ccc(-c2noc(C3CCN(C(=O)CNC(C)=O)CC3)n2)cc1OC
A: < 4.35

Q: Also Cc1ccc(N2CC(C(=O)N3CCC(c4nc(-c5ccc6c(C)nn(C)c6c5)no4)CC3)CC2=O)nc1 (stereo not shown) , if possible.
A: < 4.35

Q: Another: Cc1nn(C)c2cc(-c3noc(C4CCN(C(=O)[C@H]5CN(c6ccccc6)C(=O)O5)CC4)n3)ccc12
A: 4.53

Q: Cool, now COc1ccc(-c2noc(N3CCC(C(=O)NCCc4ccccc4)CC3)n2)cc1OC
A: < 4.35

Q: Thanks! And CC(=O)N1CCC2(CC1)CN(c1nc(-c3ccc4cnn(C(C)C)c4c3)no1)C2 ?
A: < 4.35

Q: And what about the molecule COc1ccc(-c2noc(C3CCN(C(=O)CNC(=O)c4ccccc4Cl)CC3)n2)cc1OC ?
A: 4.40

Q: Continue with CC(C)n1ncc2ccc(-c3noc(C4CCN(C(=O)OC(C)(C)C)C=C4F)n3)cc21 (stereo not shown)
A: < 4.35

Q: Try the molecule CCn1nc(C)c2ccc(-c3noc(C4CCN(C(=O)OC(C)(C)C)CC4)n3)cc21
A: < 4.35

Q: Same question, CCN(Cc1nc(-c2ccc(OC)c(OC)c2)no1)C(=O)Cc1cccc2ccccc12 this time
A: < 4.35

Q: Check CC(C)n1ncc2ccc(-c3noc(C4CCN(C(=O)c5ccc(Cl)cc5)CC4)n3)cc21 too.
A: < 4.35

Q: Next: Cc1nn(C)c2cc(-c3noc(C4CCN(C(=O)CNC(=O)c5cc(Cl)ccc5C(F)(F)F)CC4)n3)ccc12
A: < 4.35

---

tested-on: SCD5 (Homo sapiens, UniProt Q86SK9)
Construct: host or cells: S. cerevisiae ole1Δ strain (W303 pdr1Δ pdr3Δ background), plasmid pRS316 with TDH3 promoter and CYC1 terminator
assay-method-text: Growth inhibition of humanized yeast strain expressing SCD5 as sole desaturase
Type: cell-based
run-conditions: yeast strain expressing human SCD5 as sole desaturase; Table 8
I'd be grateful if you could share measured IC50 for these entries.
Return type: number; implicit unit µM.

Q: Value lookup for IC50; key = COC(=O)N1CCC(c2noc(N3CCc4cnn(C(C)C)c4C3)n2)CC1
A: 0.25

Q: What would you report for CC(C)(C)OC(=O)N1CCC(c2noc(-c3cc(C4CCOC4)ncc3F)n2)CC1 (centres unmarked) ?
A: 2.65

Q: Now this one: CC(C)C(=O)N1CCC(c2noc(-c3cncc(C4CCOC4)c3)n2)CC1 (centres unmarked)
A: 3.78

Q: Consider next the compound CC(C)CC(=O)N1CCC(c2cc(-c3cnc4cnn(C5COC5)c4c3)on2)CC1 in the same way.
A: 16.4

Q: Let us now turn to CC1(OC(=O)N2CCC(c3noc(-c4ccc(C5CCOC5)nc4)n3)CC2)CC1 (centres unmarked)
A: 32.6

Q: Now consider CC1(OC(=O)N2CCC(c3noc(-c4ccnc(-c5ccon5)c4)n3)CC2)CC1 .
A: 5.38

Q: Now try CC(C)C(=O)N1CCC(c2noc(-c3ccnc(-c4cnco4)c3)n2)CC1 .
A: 3.27

Q: And for CC(C)CC(=O)N1CCC(c2noc(-c3cnc4cnn(C5COC5)c4c3)n2)CC1 ?
A: 0.39

Q: Could you do the same for COC(=O)N1CCC(c2noc(-c3cnnc(C4CCOC4)c3)n2)CC1 (centres unmarked) , please?
A: 10.1

Q: Now the same for CC(C)(C)OC(=O)N1CCC(c2cc(-c3cnc4cnn(C5COC5)c4c3)on2)CC1
A: 0.12

Q: Try the compound CC1CN(c2cc(-c3nc(C4CCN(C(=O)C(C)C)CC4)no3)ccc2F)CC(C)O1 (centres unmarked)
A: 5.39

Q: Lookup CC(C)(C)OC(=O)N1CCC(c2noc(-c3cc(F)c(F)c(N4CCOCC4)c3)n2)CC1
A: 5.18

Q: Same read-out for CC(C)(C)OC(=O)N1CCC(c2noc(-c3cc(N4CCOCC4)ccn3)n2)CC1 ?
A: 5.55

Q: Entry CC1(OC(=O)N2CCC(c3noc(-c4cccc(C5CCOC5)n4)n3)CC2)CC1 (centres unmarked) please
A: 17.9

Q: Next record, please: CC(C)(C)OC(=O)N1CCC(c2noc(-c3cc(N4CCC(F)(F)C4)ccn3)n2)CC1
A: 4.29

Q: Input O=C(C1CCC1)N1CCC(c2cc(-c3cnc4cnn(C5COC5)c4c3)on2)CC1
A: 7.84

Q: One more compound: O=C(C1CC1)N1CCC(c2noc(-c3ccc(F)c(N4CCOCC4)c3)n2)CC1
A: 0.04

---

tested-on: Ole1 (Saccharomyces cerevisiae, UniProt P21147)
Construct: expressed in transfected cells; host or cells: S. cerevisiae ole1Δ strain (W303 pdr1Δ pdr3Δ background), plasmid pRS316 with TDH3 promoter and CYC1 terminator
Sequence (P21147 1-510): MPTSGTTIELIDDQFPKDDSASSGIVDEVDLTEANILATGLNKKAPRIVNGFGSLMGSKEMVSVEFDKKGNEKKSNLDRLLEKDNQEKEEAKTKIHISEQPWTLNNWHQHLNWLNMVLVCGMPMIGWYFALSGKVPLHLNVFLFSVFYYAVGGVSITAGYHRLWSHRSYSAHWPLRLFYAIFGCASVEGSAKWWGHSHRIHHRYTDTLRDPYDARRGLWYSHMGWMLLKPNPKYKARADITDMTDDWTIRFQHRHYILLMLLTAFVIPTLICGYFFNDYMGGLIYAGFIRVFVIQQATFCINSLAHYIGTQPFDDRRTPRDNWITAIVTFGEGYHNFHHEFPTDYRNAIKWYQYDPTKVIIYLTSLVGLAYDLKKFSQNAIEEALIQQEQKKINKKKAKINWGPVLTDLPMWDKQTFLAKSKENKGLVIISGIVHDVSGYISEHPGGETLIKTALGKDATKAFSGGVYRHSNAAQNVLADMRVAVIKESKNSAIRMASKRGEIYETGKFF
assay-method-text: Growth inhibition of yeast strain expressing Ole1 as sole desaturase
Type: cell-based
run-conditions: yeast strain expressing Ole1 as sole desaturase
Description: Strain oleΔ (yeast ole1 deletion mutant) was constructed by deleting OLE1 with NAT-MX6 in BY4741, amplifying the deletion cassette from the genomic DNA of the resulting strain with primers flanking the ORF by 1000 bp upstream and downstream, transforming the resulting deletion cassette into W303 pdr1Δ pdr3Δ, and plating transformants on YPD media containing G418 (200 μg/mL) and nourseothricin ([…]) with 0.01% TWEEN®-20 and 0.5 mM oleic and palmitoleic acids. […]
readout-label: OLE1 % Max Inhibition (%)
The reply should contain only the number, in %.

Q: Recorded OLE1 % Max Inhibition of CC(C)c1ccc(C(=O)N2CCC(c3nc(N4CC5(CCCO5)C4)no3)CC2)cc1 , please.
A: 86.7

Q: Could you do the same for Cc1nn(C)c2cc(-c3nsc(C4CCN(C(=O)C5CC(=O)N(c6ccccc6)C5)CC4)n3)ccc12 (stereo not shown) , please?
A: 7.80

Q: Try this compound next: Cc1nn(C)c2cc(-c3noc(C4CCN(C(=O)c5ccccc5Cl)CC4)n3)ccc12
A: 7.14

Q: How about this compound: CCN1C(=O)CN(C)c2cc(-c3noc(C4CCN(C(=O)CNC(=O)c5ccccc5)CC4)n3)ccc21
A: 7.1

---

tested-on: SCD5 (Homo sapiens, UniProt Q86SK9)
Construct: host or cells: S. cerevisiae ole1Δ strain (W303 pdr1Δ pdr3Δ background), plasmid pRS316 with TDH3 promoter and CYC1 terminator
assay-method-text: Growth inhibition of humanized yeast strain expressing SCD5 as sole desaturase
Type: cell-based
run-conditions: growth inhibition of humanized yeast strain expressing human SCD5
Label label 1 when IC50 is strictly below 700 nM; at or above that, label label 0.

Q: Hello, is IC50 of the following compound strictly smaller than 700 nM? CC(C)n1ncc2ccc(-c3nc(C4CCN(C(=O)OC5(C)CC5)CC4)no3)cc21 [Compound 628]
A: label 1

Q: Entry to check: CC(C)(C)OC(=O)N1CCC(c2nc(-c3cccc(C(=O)N4CCC4)c3)no2)CC1 [Compound 741]
A: label 0

Q: Continue with C=C(F)/C=C/n1cc2ccc(-c3noc(C4CCN(C(=O)OC(C)(C)C)CC4)n3)cc2n1 [Compound 739]
A: label 0

Q: What do you get for CC(C)n1ncc2ccc(-c3noc(N4CCN(C(=O)OC5CC5)CC4)n3)cc21 [Compound 689] ?
A: label 1

Q: Similarly, CC(C)n1ncc2ccc(-c3noc(N4CCC(CO)CC4)n3)cc21 [Compound 637] ?
A: label 0

Q: // same read-out, input: Cc1noc(N2CCN(c3nc(-c4ccc5cnn(C(C)C)c5c4)no3)CC2)n1 [Compound 657]
A: label 0

Q: How about CC(C)(C)OC(=O)N1CCN(c2nc(-c3ccc4cn(C5CCC5)nc4c3)no2)CC1 [Compound 729] ?
A: label 0

Q: Another compound to look at: CC(C)n1ncc2ccc(-c3noc(C4(F)CCN(C(=O)OC5CC5)CC4)n3)cc21 [Compound 624]
A: label 1

Q: Now consider CC(C)n1ncc2ccc(-c3nc(C4CCN(C(=O)C5(O)CC5)CC4)no3)cc21 [Compound 722] .
A: label 0

Q: Repeat for the following compound: CC(C)n1ncc2ccc(-c3noc(C4CCN(C(=O)CNC(=O)c5ccccc5)CC4(F)F)n3)cc21 (centres unmarked) [Compound 679]
A: label 0

Q: Same for CN(C)CC(=O)N1CCN(c2nc(-c3ccc4cnn(C5COC5)c4c3)no2)CC1 [Compound 737]
A: label 0

Q: Continue with O=C(c1sccc1Cl)N1CCC(c2nc(-c3ccc4cnn(C5COC5)c4c3)no2)CC1 [Compound 718]
A: label 1

Q: Also need CC(C)n1ncc2ccc(-c3noc(N4CCC(C5COC5)CC4)n3)cc21 [Compound 743] , thanks.
A: label 0

Q: Continue with CC(C)n1ncc2ccc(-c3noc(C4CCN(C(=O)C5CC(=O)N(C)C5(C)C)CC4)n3)cc21 (centres unmarked) [Compound 616]
A: label 0

Q: And the next one, CC(C)(C)OC(=O)N1CCC(c2nc(-c3ccc4cnn(C5COC5)c4c3)ns2)CC1 [Compound 621] ?
A: label 1

Q: Now give it for COC(=O)N1CCC(c2noc(-c3ccc4cnn(C(C)C)c4c3)n2)CC1 [Compound 629] too.
A: label 1
